Where do these numbers come from? They come from the supplement of paper PMC7877785.

Assay Info: self-splicing fitness, log relative to wild type (ln ratio); higher = more splicing; Tetrahymena group I intron in knt gene, E. coli kanamycin selection, DiMSum; sequences stand for … in CUCUCU…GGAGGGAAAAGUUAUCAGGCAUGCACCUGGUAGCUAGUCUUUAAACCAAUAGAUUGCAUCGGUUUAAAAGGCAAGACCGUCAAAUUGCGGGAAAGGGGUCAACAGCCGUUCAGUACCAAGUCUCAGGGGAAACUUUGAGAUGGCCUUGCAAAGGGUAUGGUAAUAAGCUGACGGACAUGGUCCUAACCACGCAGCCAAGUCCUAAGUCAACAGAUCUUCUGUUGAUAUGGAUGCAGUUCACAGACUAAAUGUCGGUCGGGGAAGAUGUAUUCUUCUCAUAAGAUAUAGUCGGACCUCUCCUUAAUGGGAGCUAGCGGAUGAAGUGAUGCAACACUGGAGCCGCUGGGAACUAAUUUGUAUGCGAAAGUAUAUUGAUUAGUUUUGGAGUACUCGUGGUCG;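 further: selection with 25 µg/mL kanamycin versus none on LB agar overnight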
Condition: 30 °C
Classify by self-splicing fitness (ln). Ranges: 1: < -2; 2: ≥ -2 and < -1; 3: ≥ -1

Worked examples, 2 sequences total:
CCUCAGCAAUAUUACGCUAU :: 1
UUUUAGCAAUAUUACGACGU :: 1

Categorize the following entry: AGUAAGCAAUAUUACGGCGU 3

Categorize the following entry: AAUAAGCAAUAUUACGGUCC 2

Categorize the following entry: AACCAGCAAUAUUACGUAAG 2

Categorize the following entry: UUUCAGCAAUAUUACGUACC 1

Categorize the following entry: AGUCAGCAAUAUUACGCGGU 1

Categorize the following entry: UAAAAGCAAUAUUACGCUUA 2

Categorize the following entry: UUCGAGCAAUAUUACGCUCA 1

Categorize the following entry: GUCAAGCAAUAUUACGACAG 1

Categorize the following entry: ACCGAGCAAUAUUACGAGAG 1

Categorize the following entry: UGAAAGCAAUAUUACGGAUG 2

Categorize the following entry: CGCGAGCAAUAUUACGUCGU 1

Categorize the following entry: UUGUAGCAAUAUUACGCUGG 2

Categorize the following entry: GUAAAGCAAUAUUACGACCA 3

Categorize the following entry: AGAAAGCAAUAUUACGUACA 3

Categorize the following entry: GUAUAGCAAUAUUACGGCUG 2

Categorize the following entry: GGUCAGCAAUAUUACGUGCA 3
